Let's look at some compounds and their measured IC50.
Target: KRas^G13D (Homo sapiens, UniProt P01116, G13D)
Construct: Biotinylated KRas (corresponding to amino acids 1-169, produced at Accelegan Inc.); biotin (biotinylated); purchased Accelegan Inc
Sequence (P01116 1-169 isoform P01116-2 G13D): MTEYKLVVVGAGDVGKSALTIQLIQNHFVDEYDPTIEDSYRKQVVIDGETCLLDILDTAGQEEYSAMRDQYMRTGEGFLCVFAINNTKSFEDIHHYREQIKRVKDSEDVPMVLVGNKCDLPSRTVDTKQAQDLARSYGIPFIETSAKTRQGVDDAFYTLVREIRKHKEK
Test: KRas binding assay (TR-FRET tracer displacement), KRas G13D
Conditions: TR-FRET tracer displacement, KRas G13D

| compound | target_system | result_type | result |
| --- | --- | --- | --- |
| O=C1NC(=O)[C@]2(CCCN(c3nc(OCC45CCCN4CCC5)nc4c(F)c(-c5c(C6CC6)c(Cl)cc6[nH]ncc56)ncc34)C2)N1 [Example 779] | KRas^G13D (Homo sapiens, UniProt P01116, G13D) | IC50 | < 2 nM |

Name the recorded IC50 for O=C1NC(=O)C2(CCCN(c3nc(OCC45CCCN4CCC5)nc4c(F)c(-c5cc(O)cc(Cl)c5C5CC5)ncc34)C2)N1 (stereo not drawn) [Example 739] .
< 2 nM

Further, for O=S1(=O)CCC2(CCCN(c3nc(OC[C@@]45CCCN4C[C@H](F)C5)nc4c(F)c(-c5cc(O)cc6cccc(Cl)c56)ncc34)C2)N1 (stereo partly drawn) [Example 604] ?
< 2 nM

---

Biological target: KRas^G12V (Homo sapiens, UniProt P01116, G12V)
Construct: Biotinylated KRas (corresponding to amino acids 1-169, produced at Accelegan Inc.); biotin (biotinylated); purchased Accelegan Inc
Sequence (P01116 1-169 isoform P01116-2 G12V): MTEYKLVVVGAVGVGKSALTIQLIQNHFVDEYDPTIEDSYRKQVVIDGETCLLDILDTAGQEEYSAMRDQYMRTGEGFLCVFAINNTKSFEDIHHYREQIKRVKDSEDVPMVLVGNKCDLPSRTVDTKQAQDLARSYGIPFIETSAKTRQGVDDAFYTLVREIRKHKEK
Experiment: KRas binding assay (TR-FRET tracer displacement), KRas G12V
// reported IC50 for each item listed

| compound | IC50 |
| --- | --- |
| C=C1CN2CCCC2(COc2nc(N3CC4C(=O)NC(=O)C4C3)c3cnc(-c4cc(O)cc5ccc(F)c(CC)c45)c(F)c3n2)C1 (stereo not drawn) [Example 947] | < 2 nM |
| C[C@@H]1C[C@@H]1c1c(Cl)cc(O)cc1-c1ncc2c(N3CCC[C@]4(C3)NC(=O)NC4=O)nc(OC[C@@]34CCCN3C[C@H](F)C4)nc2c1F [Example 932] | < 2 nM |
| C[C@@H]1C[C@@H]1c1c(Cl)cc(O)cc1-c1ncc2c(N3CCCn4nc(C(=O)N(C)C)cc4C3)nc(OC[C@@]34CCCN3C[C@H](F)C4)nc2c1F [Example 933] | < 2 nM |
| CCc1c(F)ccc2cc(O)cc(-c3ncc4c(N5CCC(Cc6cncn6C)C5)nc(OC[C@@]56CCCN5C[C@H](F)C6)nc4c3F)c12 (stereo partly drawn) [Example 829] | 195 nM |
| CCc1c(F)ccc2cc(O)cc(-c3ncc4c(N5CCC[C@]6(C5)NC(=O)NC6=O)nc(OCC56CCCN5C/C(=C\F)C6)nc4c3F)c12 (stereo partly drawn) [Example 794] | < 2 nM |

Now, please, on to the next compound.
Please give the measured IC50 for this compound: O=C1CC2CN(c3nc(OCC45CCCN4CCC5)nc4c(F)c(-c5cccc6cccc(F)c56)ncc34)CCC2C(=O)N1 (stereo not drawn) [Example 526]
> 100000 nM

---

Target: KRas^G12V (Homo sapiens, UniProt P01116, G12V)
Construct: Biotinylated KRas (corresponding to amino acids 1-169, produced at Accelegan Inc.); biotin (biotinylated); purchased Accelegan Inc
Experiment: KRas binding assay (TR-FRET tracer displacement), KRas G12V
IC50 values, listed per item

Look over these answered cases.
| compound | IC50 |
| --- | --- |
| C#Cc1c(F)ccc2cc(O)cc(-c3ncc4c(N5CCC[C@@](C)(O)C5)nc(OC[C@]56CCCN5[C@H](COC(=O)N(C)C)CC6)nc4c3F)c12 | < 2 nM |
| CCc1c(F)ccc2cc(O)cc(-c3ncc4c(N5CCCCn6nc(C(=O)N(C)C)cc6C5)nc(OC[C@@]56CCCN5C[C@H](F)C6)nc4c3F)c12 | < 2 nM |
| Oc1cc(-c2ncc3c(N4C[C@@H]5C[C@H](C4)[C@H](O)C5)nc(OC[C@@]45CCCN4C[C@H](F)C5)nc3c2F)c2ccccc2c1C(F)(F)F | 2040 nM |

Look at this compound and give its reported IC50. CCc1c(F)ccc2cc(O)cc(-c3ncc4c(N5CCCC(S(=O)(=O)C(F)F)C5)nc(OC[C@@]56CCCN5C[C@H](F)C6)nc4c3F)c12 (stereo partly drawn)
40 nM

Would you kindly repeat that for CCc1c(F)ccc2cc(O)cc(-c3ncc4c(N5CCC[S+]([O-])CC5)nc(OC[C@@]56CCCN5C[C@H](F)C6)nc4c3F)c12 (stereo partly drawn) ?
< 2 nM

Item: CCc1c(F)ccc2cc3[nH]ncc3c(-c3ncc4c(N5CCC[C@]6(C5)NC(=O)NC6=O)nc(OC[C@@]56CCCN5C[C@H](F)C6)nc4c3F)c12
< 2 nM

Next compound: C/C=C1/CN2CCCC2(COc2nc(N3C[C@@H]4C[C@H](C3)[C@H](O)C4)c3cnc(-c4cc(O)cc5ccc(F)c(CC)c45)c(F)c3n2)C1 (stereo partly drawn)
< 2 nM

And CCc1c(F)ccc2cc(O)cc(-c3ncc4c(N5C[C@H]6C[C@@H](C5)[C@@H](O)[C@@H]6O)nc(OC[C@@]56CCCN5C[C@H](F)C6)nc4c3F)c12 (single isomer, unassigned) ?
62 nM

And Cc1cc2[nH]ncc2c(-c2ncc3c(N4CC5CC(O)C(C5)C4)nc(OCC45CCCN4CCC5)nc3c2F)c1C (stereo not drawn) ?
410 nM

---

Molecular target: KRas^G12D (Homo sapiens, UniProt P01116, G12D)
Construct: Biotinylated KRas (corresponding to amino acids 1-169, produced at Accelegan Inc.); biotin (biotinylated); purchased Accelegan Inc
Sequence (P01116 1-169 isoform P01116-2 G12D): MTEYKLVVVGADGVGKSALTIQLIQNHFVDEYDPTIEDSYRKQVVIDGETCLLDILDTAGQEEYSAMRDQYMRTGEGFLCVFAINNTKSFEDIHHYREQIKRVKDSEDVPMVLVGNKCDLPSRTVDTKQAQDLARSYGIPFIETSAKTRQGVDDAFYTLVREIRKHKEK
Experiment: KRas binding assay (TR-FRET tracer displacement), KRas G12D
result_type: IC50

In the examples that follow, each entry is paired with its recorded IC50.
| molecule | IC50 |
| --- | --- |
| CCCCN(C)C(=O)OC[C@@H]1CC[C@@]2(COc3nc(N4CCC[C@@](C)(O)C4)c4cnc(-c5cc(O)cc6ccc(F)c(CC)c56)c(F)c4n3)CCCN12 [Example 874] | < 2 nM |
| CCc1c(F)ccc2cc(O)cc(-c3ncc4c(N5CCCn6nc(C(=O)N(C)C)cc6C5)nc(OC[C@]56CCCN5[C@H](COC(=O)N(C)C)CC6)nc4c3F)c12 [Example 714] | < 2 nM |

I am curious: what IC50 value has been reported for C=C1CN2CCCC2(COc2nc(N3CC4C(=O)NC(=O)C4C3)c3cnc(-c4cc(O)cc5ccc(F)c(CC)c45)c(F)c3n2)C1 (stereo not drawn) [Example 947] ?
< 2 nM

---

Molecular target: KRas^G12A (Homo sapiens, UniProt P01116, G12A)
Construct: Biotinylated KRas (corresponding to amino acids 1-169, produced at Accelegan Inc.); biotin (biotinylated); purchased Accelegan Inc
Sequence (P01116 1-169 isoform P01116-2 G12A): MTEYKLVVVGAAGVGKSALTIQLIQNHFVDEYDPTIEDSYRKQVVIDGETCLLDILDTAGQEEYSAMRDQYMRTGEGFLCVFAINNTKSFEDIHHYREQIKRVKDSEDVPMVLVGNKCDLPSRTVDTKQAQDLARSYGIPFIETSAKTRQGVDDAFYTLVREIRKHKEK
Test: KRas binding assay (TR-FRET tracer displacement), KRas G12A
Conditions: TR-FRET tracer displacement, KRas G12A
Recorded IC50 by entry
Response body: numeric value in nM, unit text excluded.

| compound | recorded_number |
| --- | --- |
| Oc1cc(Cl)c(C2CC2)c(-c2ncc3c(N4C[C@H]5C[C@@H](C4)[C@H](O)C5)nc(OCC45CCCN4CCC5)nc3c2F)c1 | 11 |
| Nc1nc2c(-c3ncc4c(N5CCCC6(C5)NC(=O)NC6=O)nc(OCC56CCCN5CCC6)nc4c3F)ccc(F)c2s1 (centres unmarked) | 173 |
| Cc1cc2[nH]nnc2c(-c2ncc3c(N4CCCC5(CNS(=O)(=O)N5)C4)nc(OCC45CCCN4CCC5)nc3c2F)c1C (centres unmarked) | 21 |
| Cc1cc2[nH]nnc2c(-c2ncc3c(N4CC5C(=O)NC(=O)C5C4)nc(OCC45CCCN4CCC5)nc3c2F)c1C (centres unmarked) | 5130 |
| O=C1NC(=O)C2(CCCN(c3nc(OCC45CCCN4CCC5)nc4c(F)c(-c5c6ccccc6cc6[nH]ncc56)ncc34)C2)N1 (centres unmarked) | 14 |

Kindly consider the entry below.
Query: IC50; subject: Oc1cc(-c2ncc3c(N4C[C@@H]5C[C@H](C4)[C@H](O)C5)nc(OC[C@@]45CCCN4C[C@H](F)C5)nc3c2F)c2ccccc2c1C(F)(F)F
4370

---

System: KRas-mediated phosphorylation of ERK in MKN1 cells
Test: Inhibition of KRas-mediated phosphorylation of ERK (Cisbio HTRF pERK), MKN1 cells
Type: cell-based
Details: Homo sapiens, MKN-1
result_type: log10(IC50) (log10 of the value in nM)
// do not treat as linear: log10 of IC50, unit nM

| compound | log10(IC50) |
| --- | --- |
| CCc1c(F)ccc2cc(O)cc(-c3ncc4c(N5CCC(O)c6nn(C(=O)N(C)C)cc6C5)nc(OC[C@@]56CCCN5C[C@H](F)C6)nc4c3F)c12 (stereo partly shown) | 0.78 |
| CCc1c(F)ccc2cc(O)cc(-c3ncc4c(N5CCCC6(C5)NC(=O)NC6=O)nc(OC[C@]56CCCN5[C@H](COC(=O)N(C)C)CC6)nc4c3F)c12 (stereo partly shown) | 0.48 |

What reported log10(IC50) corresponds to Oc1cc(-c2ncc3c(N4CCOCC5(CCO5)C4)nc(OC[C@@]45CCCN4C[C@H](F)C5)nc3c2F)c2c(Cl)c(F)ccc2c1 (stereo partly shown) on KRas-mediated phosphorylation of ERK in MKN1 cells?
1.32

What do you have for C=C1CN2CCCC2(COc2nc(N3CCCC4(CC(O)C4)C3)c3cnc(-c4cc(O)cc5ccc(F)c(CC)c45)c(F)c3n2)C1 (stereo not shown) ?
-0.70

// repeat for CCc1c(F)ccc2cc(O)cc(-c3ncc4c(N5CCC[C@@](C)(O)C5)nc(OC[C@@]56CCCN5C/C(=C\F)C6)nc4c3F)c12 and report
-1.00

Input C/C=C1/CN2CCCC2(COc2nc(N3C[C@@H]4C[C@H](C3)[C@H](O)C4)c3cnc(-c4cc(O)cc5ccc(F)c(CC)c45)c(F)c3n2)C1 (stereo partly shown)
-1.00
